# Tested on: Wolbachia pipientis
# Test name: Anti-Wolbachia Cell-Based Screen
# Assay type: functional
# Set-up: scale not given: in the data most compounds retested in dose-response had high values
# Experimental conditions: 5 µM
The whole screen tested about 48,000 compounds, of which about 13,000 (27%) showed an effect of 50% or more. The list shows a part of the results.
Measured parameter: Percent Effect (%)

                                    compound     target_or_system  measured_parameter  measured_number
 0           CC(C)Oc1ncnc2c1CCN(Cc1cccs1)CC2  Wolbachia pipientis      Percent Effect            10.07
 1          CCOC(=O)Cn1c(=O)c(OCC)nc2cnccc21  Wolbachia pipientis      Percent Effect            100.3
 2  O=C(c1ccoc1)N1CCCN(C(=O)c2ccc(C3CCCN3)s2)CC1 (stereo unspecified)  Wolbachia pipientis      Percent Effect            16.47
 3  CN(C)S(=O)(=O)N1C[C@@H]2CC[C@H](C1)N(Cc1ccc3c(c1)OCCO3)C2  Wolbachia pipientis      Percent Effect            2.095
 4  CC[C@@H](C)[C@@H](N)C(=O)Nc1cccc(-c2cnc(NCCO)nc2)c1  Wolbachia pipientis      Percent Effect            122.5
 5              CC(C)(C)C(=O)NCc1cnn2ccccc12  Wolbachia pipientis      Percent Effect           -7.626
 6  CC(O)(CCc1ccccc1)CNC(=O)c1ccsc1 (stereo unspecified)  Wolbachia pipientis      Percent Effect            16.96
 7  c1ccc2c(c1)CC(n1ccnc1-c1cc3n(n1)CCCNC3)CO2 (stereo unspecified)  Wolbachia pipientis      Percent Effect             3.87
 8  Cc1ccc(CN2CCc3ncnc(C4CCOC4)c3CC2)s1.O=C(O)C(F)(F)F (stereo unspecified)  Wolbachia pipientis      Percent Effect           -17.37
 9  CC(=O)Nc1nc(C(=O)N2CCCC(n3cncn3)C2)cs1 (stereo unspecified)  Wolbachia pipientis      Percent Effect            110.6
10  CC[C@@H](C)[C@@H](N)C(=O)Nc1cccc(-c2cnc(N)nc2)c1  Wolbachia pipientis      Percent Effect            118.7
11     CCn1cc(NC(=O)c2cccc(OCC(F)(F)F)n2)cn1  Wolbachia pipientis      Percent Effect            10.55
12      CN(C)C(=O)c1cccc(NC(=O)c2cnn(C)c2)c1  Wolbachia pipientis      Percent Effect           -1.797
13  COc1cccc(CC(=O)N2CC[C@H]3[C@@H]2CCC(=O)N3C)c1  Wolbachia pipientis      Percent Effect           -18.88
14  CC(COc1ccccc1)NS(C)(=O)=O (stereo unspecified)  Wolbachia pipientis      Percent Effect           -8.999
15  O=C(c1cscn1)N1CCCC(n2cncn2)C1 (stereo unspecified)  Wolbachia pipientis      Percent Effect            88.79
16  CC(=O)Nc1nc(C(=O)N2CCCC(n3nc(C)cc3C)C2)cs1 (stereo unspecified)  Wolbachia pipientis      Percent Effect           -2.313
17  CC(C)S(=O)(=O)C(C)C(=O)NCc1cccc(N2CCCCC2=O)c1 (stereo unspecified)  Wolbachia pipientis      Percent Effect             12.9
18  CC(C)c1nc(CNC(=O)c2ccc(C(C)N3CCCCC3)o2)cs1 (stereo unspecified)  Wolbachia pipientis      Percent Effect            4.315
19  CCC(CC)C(O)CNC(=O)Nc1cccc(-c2nccn2C)c1 (stereo unspecified)  Wolbachia pipientis      Percent Effect            17.02
20  COc1cccc([C@H]2CN(C(C)=O)[C@@H]3CCN(Cc4ccsc4)C[C@H]23)c1.Cl  Wolbachia pipientis      Percent Effect            57.96
21  CC(NC(N)=O)C(=O)Nc1ccc(OCc2cccc(F)c2)c(F)c1 (stereo unspecified)  Wolbachia pipientis      Percent Effect           -7.991
22     CCN(CC)c1nc(C)cc(C(=O)Nc2cnn(CC)c2)n1  Wolbachia pipientis      Percent Effect            114.1
23        CN(CCCc1n[nH]c(N)c1C#N)C(=O)NC1CC1  Wolbachia pipientis      Percent Effect            0.449
24  O=C(N1CCC(OCc2ccccn2)CC1)C1(c2ccc(F)cc2)CC1  Wolbachia pipientis      Percent Effect            -10.1
25  CC(=O)N1C[C@@H](c2ccsc2)[C@@H]2CN(Cc3cccc(Cl)c3)CC[C@@H]21  Wolbachia pipientis      Percent Effect            2.234
26  Cn1ccnc1C(O)c1ccccc1N1CCN(Cc2ccsc2)CC1 (stereo unspecified)  Wolbachia pipientis      Percent Effect            129.7
27               CCn1nnnc1-c1cccc(NC(N)=O)c1  Wolbachia pipientis      Percent Effect            11.47
28        CCc1sc(C(=O)Nc2cnn(CCN(C)C)c2)cc1C  Wolbachia pipientis      Percent Effect            11.53
29    CC(C)C(=O)NCc1ccccc1NS(=O)(=O)c1ccccc1  Wolbachia pipientis      Percent Effect            -3.24
30  Cn1ccnc1C(O)c1ccccc1N1CCN(Cc2cccs2)CC1 (stereo unspecified)  Wolbachia pipientis      Percent Effect            123.9
31  CC(C)S(=O)(=O)C(C)C(=O)NCc1ccccc1OCc1ccccc1 (stereo unspecified)  Wolbachia pipientis      Percent Effect            96.24
32  CCN1CCC(N2C[C@@H](C(=O)O)[C@H](c3cccc(OC)c3)C2)CC1  Wolbachia pipientis      Percent Effect            12.25
33   COC(=O)CNC(=O)CSCc1nc(O)c2c(C)c(C)sc2n1  Wolbachia pipientis      Percent Effect            7.048
34  CN1CCOC(C(=O)N2CCC3(CCCCC3)C2)C1 (stereo unspecified)  Wolbachia pipientis      Percent Effect            13.97
35  N[C@@H]1CC[C@@H]1NC(=O)c1ccccc1OC(F)(F)C(F)F  Wolbachia pipientis      Percent Effect           -9.663
36  CCN1C[C@@H](C(=O)O)[C@H](c2cccc(OC)c2)C1  Wolbachia pipientis      Percent Effect            8.176
37  CN(C)c1ncc(NC(=O)c2cccc(Nc3cnn(C)c3)c2)cn1  Wolbachia pipientis      Percent Effect           -2.232
38  COc1cccc(CN2CC[C@H]3[C@@H](C2)[C@H](c2ccsc2)CN3C(C)=O)c1  Wolbachia pipientis      Percent Effect            146.6
39  O=C(c1csnn1)N1CCCC(n2cncn2)C1 (stereo unspecified)  Wolbachia pipientis      Percent Effect            98.21
40  COCc1cn([C@@H]2c3ccccc3C3(CCNCC3)[C@H]2O)nn1  Wolbachia pipientis      Percent Effect           -6.385
41  CCC(Nc1cccc(OC)c1)C(=O)N(CCO)Cc1nccs1 (stereo unspecified)  Wolbachia pipientis      Percent Effect           -9.396
42            Cn1ccnc1-c1cccc(NC(=O)NCCCO)c1  Wolbachia pipientis      Percent Effect           -3.437
43  O=C(c1cc(C2CC2)on1)N1CCCC(n2cncn2)C1 (stereo unspecified)  Wolbachia pipientis      Percent Effect             7.01
44  CC[C@@H](C)[C@@H](N)C(=O)Nc1cccc(-c2cnc(N(C)C)nc2)c1  Wolbachia pipientis      Percent Effect            111.5
45            CC(C)OCc1ccccc1CNC(=O)C(C)(C)C  Wolbachia pipientis      Percent Effect            99.75
